B1: TPR t1 (parent)
chain: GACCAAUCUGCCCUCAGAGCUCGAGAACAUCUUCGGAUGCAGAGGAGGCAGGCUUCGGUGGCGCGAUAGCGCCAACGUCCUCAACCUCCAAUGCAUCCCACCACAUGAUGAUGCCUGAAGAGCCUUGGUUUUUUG

variants of: B1; experiment: polymerase ribozyme fitness, log enrichment relative to wild type (log ratio); higher = more active; in vitro selection for triplet polymerase activity
Mark Criterion met for reported polymerase ribozyme fitness (log ratio) of -2 or greater; mark Criterion not met for anything smaller.

The following variants have reported results that may help.
>>> classlabel("A6U C72A C102A C123G")
"Criterion met"
>>> classlabel("G36A G57A G60U U131G")
"Criterion met"
>>> classlabel("G69C U78C U106A")
"Criterion not met"

Q. Say whether U7G G23A shows polymerase ribozyme fitness (log ratio) of -2 or more.
A. Criterion not met

Q. Say whether G25C A29G C64A C79G A90C G117U A119G shows polymerase ribozyme fitness (log ratio) of -2 or more.
A. Criterion not met

Q. Say whether A16U C72G G122A shows polymerase ribozyme fitness (log ratio) of -2 or more.
A. Criterion not met
